Settings: human gut metagenome, 24 h, 2 µM; also: call rule not given here
measured_parameter: Bacterial Biotransformation

// solved cases for Bacterial Biotransformation follow
CC(=O)OCC(CCn1cnc2cnc(N)nc21)COC(C)=O : Compound metabolized
N[C@@H](Cc1ccc(N(CCCl)CCCl)cc1)C(=O)O : Compound NOT metabolized
COc1ccc2cc([C@H](C)C(=O)O)ccc2c1 : Compound metabolized
CC(=O)O[C@H]1C(=O)[C@@]2(C)[C@H]([C@H](OC(=O)c3ccccc3)[C@]3(O)C[C@H](OC(=O)[C@H](O)[C@@H](NC(=O)c4ccccc4)c4ccccc4)C(C)=C1C3(C)C)[C@]1(OC(C)=O)CO[C@@H]1C[C@@H]2O : Compound NOT metabolized
O=C1C(CC[S+]([O-])c2ccccc2)C(=O)N(c2ccccc2)N1c1ccccc1 (stereo unspecified) : Compound metabolized
CC(=O)CCCCn1c(=O)c2c(ncn2C)n(C)c1=O : Compound NOT metabolized

Which Bacterial Biotransformation value is on record for COc1ccc(CN2CCNCC2)c(OC)c1OC.Cl.Cl [TRIMETAZIDINE DIHYDROCHLORIDE] ?
Compound NOT metabolized

Continue with O=C(O)c1cc(/N=N/c2ccc(S(=O)(=O)Nc3ccccn3)cc2)ccc1O
Compound metabolized

src = ChEMBL document CHEMBL5724914
